Test: Solubility measurement in solvents
Type: physicochemical
Conditions: PEG400, organic solvent or mixture, thermodynamic from solid, PEG400, 2 h, room temperature; solution was clear at 2 h; read-out: Solubility at 2 h
REPORTED_ENDPOINT: solubility at 2 h

query: Give its solubility at 2 h value. Item: COc1cccc(CNc2ccc(S(=O)(=O)Nc3nc4ccccc4s3)cc2)c1O
result: > 10000 µg/mL

----------
Experiment: Solubility measurement in solvents
Assay type: physicochemical
Conditions: Glycerin, organic solvent or mixture, thermodynamic from solid, 0.5 h, room temperature
REPORTED_ENDPOINT: solubility at 0.5 h (µg/mL)
Numbers only, in µg/mL.

query: I'd like to know its solubility at 0.5 h. The compound in question is COc1cccc(CNc2ccc(S(=O)(=O)Nc3nc4ccccc4s3)cc2)c1O [Compound 1]
result: 13

----------
Kindly supply the reported solubility values for the records listed here.
Experiment: Solubility in HP-β-CD at high pH
Assay type: physicochemical
Settings: 25% cyclodextrin solution, aqueous with cosolvent or surfactant or cyclodextrin, pH 9.8, read-out: Solubility with 25% cyclodextrin at pH 9.8

Go through the list and state solubility for each entry.
1. COc1cccc(CNc2ccc(S(=O)(=O)Nc3nc4ccccc4s3)cc2)c1O
2. COc1cccc(CNc2ccc(S(=O)(=O)Nc3cccc(C(C)C)c3)cc2)c1O

result:
["~40 mg/mL", "~40 mg/mL"]

query: For the compound shown here, COc1cccc(CNc2ccc(S(=O)(=O)Nc3nc4ccccc4o3)cc2)c1O , give the reported solubility.
result: ~40 mg/mL

----------
Experiment: Solubility measurement in solvents
Assay type: physicochemical
Settings: PG, organic solvent or mixture, thermodynamic from solid, 0.5 h, room temperature
REPORTED_ENDPOINT: solubility at 0.5 h (µg/mL)
One number for each entry, in µg/mL.

query: # query: solubility at 0.5 h of entry COc1cccc(CNc2ccc(S(=O)(=O)Nc3nc4ccccc4s3)cc2)c1O
result: 400

----------
Assay: Solubility measurement in solubilizers (aqueous phosphate buffer at pH 7.4)
Type: physicochemical
Settings: 20% Captisol in phosphate buffer, pH 7.4, aqueous with cosolvent or surfactant or cyclodextrin, thermodynamic from solid, 20% Captisol, phosphate buffer pH 7.4, 0.5 h
REPORTED_ENDPOINT: solubility at 0.5 h (µg/mL)
Answers are plain numbers, in µg/mL.

query: Quick one: solubility at 0.5 h for COc1cccc(CNc2ccc(S(=O)(=O)Nc3nc4ccccc4s3)cc2)c1O ?
result: 100

----------
Test: Solubility measurement in solubilizers (aqueous phosphate buffer at pH 7.4)
Type: physicochemical
Details: 10% Tween 80 in phosphate buffer, pH 7.4, aqueous with cosolvent or surfactant or cyclodextrin, thermodynamic from solid, 10% Tween 80, phosphate buffer pH 7.4, 2 h; read-out: Solubility at 2 h
REPORTED_ENDPOINT: solubility at 2 h (µg/mL)
Give bare numbers, in µg/mL.

query: Look at this compound and give its reported solubility at 2 h. COc1cccc(CNc2ccc(S(=O)(=O)Nc3nc4ccccc4s3)cc2)c1O
result: 78

----------
Experiment: Solubility measurement in solvents
Type: physicochemical
Conditions: PG, organic solvent or mixture, thermodynamic from solid, PG, 2 h, room temperature; read-out: Solubility at 2 h
Procedure: Solubility analysis of Compound 1 (N-(benzo[d]thiazol-2-yl)-4-((2-hydroxy-3-methoxybenzyl)amino)benzenesulfonamide) was performed in a total of 25 media including organic solvent, co-solvent, solubilizer and buffer, for 2 hours at room temperature. […] About 5 mg of Compound 1 was weighed to sample vial and 0.5 mL of solvent was added (target concentration was 10 mg/mL) with 30-100 μL per time. […] The supernatant was collected and analyzed by HPLC.
REPORTED_ENDPOINT: solubility at 2 h (µg/mL)
Answers are plain numbers, in µg/mL.

query: Give the measured solubility at 2 h of COc1cccc(CNc2ccc(S(=O)(=O)Nc3nc4ccccc4s3)cc2)c1O .
result: 420

----------
Test: Solubility measurement in solubilizers (aqueous phosphate buffer at pH 7.4)
Type: physicochemical
Details: 1% Tween 80 in phosphate buffer, pH 7.4, aqueous with cosolvent or surfactant or cyclodextrin, thermodynamic from solid, 1% Tween 80, phosphate buffer pH 7.4, 0.5 h
REPORTED_ENDPOINT: solubility at 0.5 h (µg/mL)
One number for each entry, in µg/mL.

query: Fill in the blank: the reported solubility at 0.5 h of COc1cccc(CNc2ccc(S(=O)(=O)Nc3nc4ccccc4s3)cc2)c1O is ____.
result: 20

----------
Assay: Solubility measurement in solvents
Assay type: physicochemical
Conditions: PEG400, organic solvent or mixture, thermodynamic from solid, PEG400, 0.5 h, room temperature
REPORTED_ENDPOINT: solubility at 0.5 h (mg/mL)
Numbers only, in mg/mL.

query: # get_value(readout='solubility at 0.5 h', item= COc1cccc(CNc2ccc(S(=O)(=O)Nc3nc4ccccc4s3)cc2)c1O )
result: 4.42

----------
Test: Solubility measurement in solvents
Format: physicochemical
Conditions: DMAC, organic solvent or mixture, thermodynamic from solid, 0.5 h, room temperature, visual observation
REPORTED_ENDPOINT: solubility at 0.5 h

query: Look up solubility at 0.5 h: COc1cccc(CNc2ccc(S(=O)(=O)Nc3nc4ccccc4s3)cc2)c1O [Compound 1]
result: > 100 mg/mL

----------
Assay: Solubility measurement in solvents
Type: physicochemical
Conditions: solvents other than DMSO, DMAC, NMP and PEG400, organic solvent or mixture, thermodynamic from solid, solvents other than DMSO, DMAC, NMP and PEG400; read-out: Solubility in other solvents
Protocol: Solubility analysis of Compound 1 (N-(benzo[d]thiazol-2-yl)-4-((2-hydroxy-3-methoxybenzyl)amino)benzenesulfonamide) was performed in a total of 25 media including organic solvent, co-solvent, solubilizer and buffer, for 2 hours at room temperature. […] About 5 mg of Compound 1 was weighed to sample vial and 0.5 mL of solvent was added (target concentration was 10 mg/mL) with 30-100 μL per time. […] The supernatant was collected and analyzed by HPLC.
REPORTED_ENDPOINT: solubility

query: May I ask what solubility has been recorded for COc1cccc(CNc2ccc(S(=O)(=O)Nc3nc4ccccc4s3)cc2)c1O ?
result: < 1 mg/mL

----------
Test: Solubility measurement in solubilizers (aqueous phosphate buffer at pH 7.4)
Format: physicochemical
Settings: 5% Solutol in phosphate buffer, pH 7.4, aqueous with cosolvent or surfactant or cyclodextrin, thermodynamic from solid, 5% Solutol, phosphate buffer pH 7.4, 0.5 h
REPORTED_ENDPOINT: solubility at 0.5 h (µg/mL)
Give bare numbers, in µg/mL.

query: Fill in the blank: the reported solubility at 0.5 h of COc1cccc(CNc2ccc(S(=O)(=O)Nc3nc4ccccc4s3)cc2)c1O is ____.
result: 78

----------
Experiment: Solubility measurement in solvents
Format: physicochemical
Conditions: EtOH, organic solvent or mixture, thermodynamic from solid, 0.5 h, room temperature
Description: Solubility analysis of Compound 1 (N-(benzo[d]thiazol-2-yl)-4-((2-hydroxy-3-methoxybenzyl)amino)benzenesulfonamide) was performed in a total of 25 media including organic solvent, co-solvent, solubilizer and buffer, for 2 hours at room temperature. […] About 5 mg of Compound 1 was weighed to sample vial and 0.5 mL of solvent was added (target concentration was 10 mg/mL) with 30-100 μL per time. […] The supernatant was collected and analyzed by HPLC.
REPORTED_ENDPOINT: solubility at 0.5 h (mg/mL)
Numbers only, in mg/mL.

query: Which value of solubility at 0.5 h has been reported for COc1cccc(CNc2ccc(S(=O)(=O)Nc3nc4ccccc4s3)cc2)c1O in the records?
result: 0.29

----------
For each record, write down the corresponding solubility.
Assay: Solubility in HP-β-CD at high pH
Assay type: physicochemical
Settings: 25% cyclodextrin solution, aqueous with cosolvent or surfactant or cyclodextrin, pH 8.0, read-out: Solubility with 25% cyclodextrin at pH 8.0

# example entries with known answers
COc1cccc(CNc2ccc(S(=O)(=O)Nc3cccc(C(C)C)c3)cc2)c1O [Compound 3]
~20 mg/mL
COc1cccc(CNc2ccc(S(=O)(=O)Nc3nc4ccccc4s3)cc2)c1O [Compound 1]
~20 mg/mL

Pending compound:
query: Name the reported solubility value associated with the compound COc1cccc(CNc2ccc(S(=O)(=O)Nc3nc4ccccc4o3)cc2)c1O [Compound 2]
result: ~20 mg/mL

----------
Test: Solubility measurement in buffers over a pH range
Format: physicochemical
Settings: pH buffers, pH 1, aqueous buffer, thermodynamic from solid, pH 1-9 buffers; main peak not detected by HPLC; read-out: Solubility in pH buffers, pH 1-9
REPORTED_ENDPOINT: solubility

query: Form field: reported solubility of COc1cccc(CNc2ccc(S(=O)(=O)Nc3nc4ccccc4s3)cc2)c1O [Compound 1]
result: < 0.15 µg/mL

----------
Experiment: Solubility measurement in solubilizers (aqueous phosphate buffer at pH 7.4)
Assay type: physicochemical
Details: 10% HP-β-CD in phosphate buffer, pH 7.4, aqueous with cosolvent or surfactant or cyclodextrin, thermodynamic from solid, 10% HP-β-CD, phosphate buffer pH 7.4, 0.5 h
REPORTED_ENDPOINT: solubility at 0.5 h (µg/mL)
Give bare numbers, in µg/mL.

query: For COc1cccc(CNc2ccc(S(=O)(=O)Nc3nc4ccccc4s3)cc2)c1O [Compound 1] , what is its reported solubility at 0.5 h?
result: 56

Values from patent US20250057857A1
